Tested on: PIK4CB;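 also: KINOMEscan scanMAX binding as percent activity remaining versus control; lower means stronger binding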
Construct: gene PI4KB
measurement.setup: Compound Concentration (nM):1000
measure: Percent Control (%)
Give the value in % but do not write % after it.

Consider the compound COc1cc(C)c(N(C)C(=O)CN(C)C)cc1Nc1nc(Nc2cccc(F)c2C(N)=O)c2cc[nH]c2n1 [GSK2219385] . State its measured Percent Control.
85

Consider the compound COc1ccccc1-c1cc(/C=C2\C(=O)Nc3ncc(Br)cc32)cc(Br)c1O [GW442130X] . State its measured Percent Control.
68

Consider the compound Cl.O=S1CCN(Cc2ccc(-c3ccc4ncnc(Nc5ccc(OCc6ccccc6)c(F)c5)c4c3)o2)CC1 [GW576924A] . State its measured Percent Control.
100

Consider the compound COc1ccc2cc(-c3c(-c4ccncc4)nc(-c4ccc(S(C)(=O)=O)cc4C)n3C)ccc2c1 [SB-633825] . State its measured Percent Control.
69

Consider the compound CN(C)CCNC(=O)Nc1ccc(N(C)c2ccnc(Nc3ccc(CS(C)(=O)=O)cc3)n2)cc1.Cl [GW830900A] . State its measured Percent Control.
11

Consider the compound NS(=O)(=O)c1ccc(N/N=C2\C(=O)Nc3ccc(C(=O)NCc4ccncc4)cc32)cc1 [GW300657X] . State its measured Percent Control.
83

Consider the compound COc1cc2ncnc(Nc3ccc4c(cnn4Cc4ccccc4)c3)c2cc1OC.Cl [GW282449A] . State its measured Percent Control.
100

Consider the compound CCS(=O)(=O)c1ccc(OC)c(Nc2ncc(-c3cccc(F)c3)o2)c1 [GW621970X] . State its measured Percent Control.
100
